target-desc: skeletal myofibrils (myosin ATPase)
assay-summary: Skeletal Myofibril ATPase Assay
Assay type: biochemical
experimental-parameters: Table 4A
pIC50: −log10 of the molar value.
measure-name: pIC50

Q. Param item = O=C(Cn1nc(-c2cnc(OCC(F)(F)F)nc2)ccc1=O)NC1CCC1 ; retrieve measured pIC50.
A. > 5.00

====

Below, each entry is listed with its recorded IC50.
target-desc: skeletal myofibrils (myosin ATPase)
assay-summary: Skeletal Myofibril ATPase Assay
Format: biochemical
experimental-parameters: Table 4C
Experimental: FIG. 7 depicts the buffer preparation procedures of Buffer A and Buffer B for the skeletal myofibril ATPase assay described in Example 12. Buffers were stored on ice until use. Example 12: Skeletal Myofibril ATPase Assay Overview: Myosin ATPase activity is assessed by using a coupled reaction system, in which ADP generated by the myosin ATPase function is coupled to the disappearance of NADH through the pyruvate kinase/lactate dehydrogenase (PK-LDH) system. […]

// worked examples, IC50 included
[
  {
    "compound": "COc1ccc(-c2ccc(=O)n(CC(=O)Nc3ccc(Cl)cc3Cl)n2)cc1",
    "IC50": "< 10 µM"
  },
  {
    "compound": "COc1ccc(-c2ccc(=O)n(CC(=O)NCc3cc(F)ccc3Cl)n2)cc1",
    "IC50": "< 10 µM"
  },
  {
    "compound": "CC(C)CNC(=O)Cn1nc(-c2ccc(Cl)cc2)ccc1=O",
    "IC50": "10 to 100 µM"
  },
  {
    "compound": "O=C(Cn1nc(-c2ccccc2)ccc1=O)Nc1ccc2[nH]ccc2c1",
    "IC50": "< 10 µM"
  },
  {
    "compound": "CCc1ccc(-c2ccc(=O)n(CC(=O)Nc3ccc4c(c3)OCCO4)n2)cc1",
    "IC50": "> 100 µM"
  },
  {
    "compound": "COc1ccc(-c2ccc(=O)n(CC(=O)NCc3ccccc3Cl)n2)cc1",
    "IC50": "< 10 µM"
  },
  {
    "compound": "COc1ccc(-c2ccc(=O)n(CC(=O)Nc3cccc4[nH]ccc34)n2)cc1",
    "IC50": "< 10 µM"
  },
  {
    "compound": "COc1ccc(-c2ccc(=O)n(CC(=O)NCc3ccc(Cl)cc3)n2)cc1 [IIIa-17]",
    "IC50": "< 10 µM"
  }
]

Q. Can you look up IC50 on skeletal myofibrils (myosin ATPase) for O=C(Cn1nc(-c2ccc(Cl)cc2)ccc1=O)Nc1ccccc1Cl [IIIc-28] ?
A. < 10 µM

====

target-desc: skeletal myofibrils (myosin ATPase)
assay-summary: Skeletal Myofibril ATPase Assay
Format: biochemical
experimental-parameters: Table 4B
Below, each entry is listed with its recorded IC50.

[
  {
    "compound": "O=C(Cn1nc(-c2ccc(OCC(F)(F)F)cc2)ccc1=O)NCc1ccc[nH]c1=O [II-26]",
    "measure-name": "IC50",
    "test-value": "10 to 100 µM"
  },
  {
    "compound": "CCNC(=O)Cn1nc(-c2ccc(OC(C)(F)F)cc2)ccc1=O [II-1]",
    "measure-name": "IC50",
    "test-value": "< 10 µM"
  },
  {
    "compound": "CCCNC(=O)Cn1nc(-c2ccc(OC(F)F)cc2)ccc1=O [II-12]",
    "measure-name": "IC50",
    "test-value": "10 to 100 µM"
  }
]

Proceed to the following item.
Q. Param item = CCNC(=O)Cn1nc(-c2ccc(OCC(F)F)cc2)ccc1=O [II-7] ; retrieve measured IC50.
A. < 10 µM

====

target-desc: skeletal myofibrils (myosin ATPase)
assay-summary: Skeletal Myofibril ATPase Assay
Format: biochemical
experimental-parameters: Table 4C
Below, each entry is listed with its recorded IC50.

// worked examples, IC50 included
[
  {
    "compound": "COc1ccc(-c2ccc(=O)n(CC(=O)NC3CC3)n2)cc1 [IIIb-22]",
    "test-value": "10 to 100 µM"
  },
  {
    "compound": "COc1ccc(-c2ccc(=O)n(CC(=O)NC(C)CCc3ccccc3)n2)c(F)c1 (stereo not drawn) [IIIb-36]",
    "test-value": "10 to 100 µM"
  },
  {
    "compound": "COc1ccc(-c2ccc(=O)n(CC(=O)NCc3ccc(C)cc3)n2)cc1 [IIIa-15]",
    "test-value": "< 10 µM"
  },
  {
    "compound": "O=C(Cn1nc(-c2ccccc2)ccc1=O)Nc1ccc(Cl)cc1Cl [IIIc-54]",
    "test-value": "10 to 100 µM"
  }
]

Q. Param item = COc1ccc(-c2ccc(=O)n(CC(=O)NC3Cc4ccccc4C3)n2)cc1 [IIIb-8] ; retrieve measured IC50.
A. < 10 µM

Q. Param item = COc1ccc(-c2ccc(=O)n(CC(=O)Nc3cccc4c3ccn4C)n2)cc1 [IIIb-4] ; retrieve measured IC50.
A. < 10 µM

Q. Param item = COc1ccc(-c2ccc(=O)n(CC(=O)N(C)c3ccccc3)n2)cc1 [IIIc-7] ; retrieve measured IC50.
A. 10 to 100 µM

Q. Param item = O=C(Cn1nc(-c2ccccc2)ccc1=O)Nc1ccccc1F [IIIc-66] ; retrieve measured IC50.
A. > 100 µM

Q. Param item = COc1ccccc1NC(=O)Cn1nc(-c2ccccc2)ccc1=O [IIIc-58] ; retrieve measured IC50.
A. 10 to 100 µM

====

target-desc: skeletal myofibrils (myosin ATPase)
assay-summary: Skeletal Myofibril ATPase Assay
Assay type: biochemical
experimental-parameters: Table 4B
pIC50: −log10 of the molar value.
measure-name: pIC50

[
  {
    "given-smiles": "O=C(Cn1nc(-c2ccc(OCC(F)(F)F)cc2)ccc1=O)NCc1ccc(CO)cc1",
    "test-value": "< 4.00"
  },
  {
    "given-smiles": "O=C(Cn1nc(-c2ccc(OCC(F)(F)F)cc2)ccc1=O)N1CC(c2ccccc2)C1",
    "test-value": "> 5.00"
  },
  {
    "given-smiles": "CCCCNC(=O)Cn1nc(-c2ccc(OC(F)F)cc2)ccc1=O",
    "test-value": "4.00 to 5.00"
  },
  {
    "given-smiles": "O=C(Cn1nc(-c2ccc(OCC(F)(F)F)cc2)ccc1=O)NCc1ccc(O)nc1",
    "test-value": "< 4.00"
  },
  {
    "given-smiles": "CCNC(=O)Cn1nc(-c2ccc(OC(F)F)cc2)cc(C)c1=O",
    "test-value": "< 4.00"
  }
]

Q. Param item = CC(C)(C)NC(=O)Cn1nc(-c2ccc(OC(F)F)cc2)ccc1=O ; retrieve measured pIC50.
A. 4.00 to 5.00

====

Below, each entry is listed with its recorded IC50.
target-desc: skeletal myofibrils (myosin ATPase)
assay-summary: Skeletal Myofibril ATPase Assay
Type: biochemical
experimental-parameters: Table 4C

// worked examples, IC50 included
[
  {
    "given-smiles": "O=C(Cn1nc(-c2ccccc2)ccc1=O)NC1(c2ccccc2)CCC1",
    "IC50": "< 10 µM"
  },
  {
    "given-smiles": "COc1ccc(-c2ccc(=O)n(CC(=O)NCc3ccccc3Cl)n2)cc1F",
    "IC50": "10 to 100 µM"
  },
  {
    "given-smiles": "COc1ccc(-c2ccc(=O)n(CC(=O)NCc3nccn3C)n2)cc1",
    "IC50": "> 100 µM"
  }
]

Q. Param item = COc1ccc(-c2ccc(=O)n(CC(=O)NCc3cnoc3)n2)cc1 ; retrieve measured IC50.
A. > 100 µM

Q. Param item = COc1ccc(-c2ccc(=O)n(CC(=O)Nc3ccc4c(c3)OCO4)n2)c(F)c1 ; retrieve measured IC50.
A. 10 to 100 µM

====

target-desc: skeletal myofibrils (myosin ATPase)
assay-summary: Skeletal Myofibril ATPase Assay
Assay type: biochemical
experimental-parameters: Table 4C
measure-name: IC50

[
  {
    "compound": "O=C(Cn1nc(-c2ccccc2)ccc1=O)Nc1ccc2c(c1)OCCO2 [IIIc-64]",
    "test-value": "> 100 µM"
  },
  {
    "compound": "COc1ccc(-c2ccc(=O)n(CC(=O)NCc3ccc(OC)c(OC)c3)n2)cc1 [IIIb-49]",
    "test-value": "> 100 µM"
  },
  {
    "compound": "COc1ccc(-c2ccc(=O)n(CC(=O)NCc3ccc(Cl)cc3)n2)cc1 [IIIb-31]",
    "test-value": "10 to 100 µM"
  },
  {
    "compound": "COc1ccc(-c2ccc(=O)n(CC(=O)NC3CCCCC3)n2)c(F)c1 [IIIb-60]",
    "test-value": "> 100 µM"
  }
]

Q. Param item = COc1ccc(-c2ccc(=O)n(CC(=O)Nc3cccc(C)n3)n2)cc1 [IIIb-59] ; retrieve measured IC50.
A. > 100 µM

====

target-desc: skeletal myofibrils (myosin ATPase)
assay-summary: Skeletal Myofibril ATPase Assay
Format: biochemical
experimental-parameters: Table 4A
Description: FIG. 7 depicts the buffer preparation procedures of Buffer A and Buffer B for the skeletal myofibril ATPase assay described in Example 12. Buffers were stored on ice until use. Example 12: Skeletal Myofibril ATPase Assay Overview: Myosin ATPase activity is assessed by using a coupled reaction system, in which ADP generated by the myosin ATPase function is coupled to the disappearance of NADH through the pyruvate kinase/lactate dehydrogenase (PK-LDH) system. […]
pIC50: −log10 of the molar value.
Below, each entry is listed with its recorded pIC50.

// worked examples, pIC50 included
[
  {
    "compound": "CCNC(=O)Cn1nc(-c2ccc(OCCCN(C)C)nc2)ccc1=O [Compound I-28]",
    "test-value": "< 4.00"
  },
  {
    "compound": "CC(C)(C#N)NC(=O)Cn1nc(-c2ccc(OC(F)F)nc2)ccc1=O [Compound I-35]",
    "test-value": "4.00 to 5.00"
  },
  {
    "compound": "COc1ccc(-c2ccc(=O)n(CC(=O)NC(C)C)n2)cn1 [Compound I-16]",
    "test-value": "4.00 to 5.00"
  },
  {
    "compound": "CCNC(=O)Cn1nc(-c2ccc(N3CC4(C3)CS(=O)(=O)C4)nc2)ccc1=O [Compound I-32]",
    "test-value": "< 4.00"
  }
]

Proceed to the following item.
Q. Can you look up pIC50 on skeletal myofibrils (myosin ATPase) for CCNC(=O)Cn1nc(-c2ccc(Oc3ccc(F)cc3)nc2)ccc1=O [Compound I-21] ?
A. 4.00 to 5.00
